System: HIV-1
assay info: Inhibitory activity against HIV-1 (literature method, Chen et al. J Virol 1997)
applied conditions: Human immunodeficiency virus 1, read-out: Anti-HIV (%, 1.0 μM)
inhibition at 1 µM values for the molecules below.
Give the value in % but do not write % after it.

[
  {
    "molecule": "CCCc1cc(=O)oc2c1c1c(c3occc(=O)c32)C=CC(C)(C)O1",
    "measured endpoint": "inhibition at 1 µM",
    "observed": 64.9
  },
  {
    "molecule": "CCc1cc(=O)oc2c3c(c4c(c12)OC(c1ccccc1)C=C4)OC(C)CC3=O (stereo not drawn)",
    "measured endpoint": "inhibition at 1 µM",
    "observed": 96.4
  },
  {
    "molecule": "CCCc1cc(=O)oc2c3c(c4c(c12)OC(C)(C)C=C4)O[C@H](C)[C@@H](C)[C@@H]3O [(+)-Calanolide A, (+)-calanolide A]",
    "measured endpoint": "inhibition at 1 µM",
    "observed": 86
  },
  {
    "molecule": "CCCc1cc(=O)oc2c3c(c4c(c12)OC(C)(C)C=C4)OC(CBr)CC3=O (stereo not drawn)",
    "measured endpoint": "inhibition at 1 µM",
    "observed": 93.5
  },
  {
    "molecule": "C/C=C/C1C=Cc2c3c(c4oc(=O)c(F)c(CC)c4c2O1)C(=O)CC(C)O3 (stereo not drawn)",
    "measured endpoint": "inhibition at 1 µM",
    "observed": 46.2
  }
]

Measured on HIV-1, `CCCc1cc(=O)oc2c3c(c4c(c12)OC(C)(C)C=C4)OC(C)(C)CC3=O` has a documented inhibition at 1 µM of 68.3

inhibition at 1 µM value, target or system HIV-1, for `CCCc1cc(=O)oc2c3c(c4c(c12)OC(C)(C)C=C4)O[C@@H]1CCCC[C@@H]1C3=O` : 59.3

Test item CCc1cc(=O)oc2c3c(c4c(c12)OC(C)C=C4)OC(C)CC3=O (stereo not drawn) ; HIV-1; reported inhibition at 1 µM was 57.4

Record CCCc1cc(=O)oc2c3c(c4c(c12)OC(C)(C)C=C4)OC(CCC)CC3=O (stereo not drawn) ; system HIV-1; inhibition at 1 µM = 61.9
